Molecular target: OXA-48 (Klebsiella pneumoniae)
Sequence (Q6XEC0 23-265, looked up): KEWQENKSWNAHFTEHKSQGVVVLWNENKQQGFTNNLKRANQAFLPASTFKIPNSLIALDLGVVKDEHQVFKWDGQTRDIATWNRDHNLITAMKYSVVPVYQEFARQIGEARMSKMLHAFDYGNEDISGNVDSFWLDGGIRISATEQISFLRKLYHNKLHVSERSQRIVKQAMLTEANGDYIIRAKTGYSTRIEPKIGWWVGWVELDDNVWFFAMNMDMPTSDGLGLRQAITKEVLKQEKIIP
Assay: Inhibition of nitrocefin cleavage by purified OXA-48
Details: nitrocefin reporter substrate; 10 min preincubation at room temperature; read-out: Ki (OXA-48, NCF)
property: Ki

Field Ki (entry COc1ccc2c(c1C(=O)O)OB(O)[C@@H]1COC[C@H]21 ) reads < 100 nM

Field Ki (entry O=C(O)c1cccc2c1OB(O)[C@@H]1C[C@H]21 ) reads < 100 nM

Field Ki (entry O=C(O)[C@H]1/C(=C/CO)O[C@@H]2CC(=O)N21 [Clavulanic Acid, reference compound] ) reads > 1000 nM

----------
Biological target: VIM-1 (Pseudomonas aeruginosa)
Experiment: Inhibition of nitrocefin cleavage by purified VIM-1
Conditions: nitrocefin reporter substrate; 10 min preincubation at room temperature; read-out: Ki (VIM-1, NCF)
For each entry below, report its Ki value.

Field Ki (entry C[C@]1(Cn2ccnn2)[C@H](C(=O)O)N2C(=O)C[C@H]2S1(=O)=O [Tazobactam, reference compound] ) reads > 1 µM

Field Ki (entry COc1ccc2c(c1C(=O)O)OB(O)C1CC21 (stereo not drawn) [Compound 1] ) reads < 0.1 µM

Field Ki (entry O=C(O)c1c(F)c(F)cc2c1OB(O)C1CC21 (stereo not drawn) [Compound 19] ) reads < 0.1 µM

Field Ki (entry O=C(O)c1cccc2c1OB(O)[C@@H]1C[C@H]21 [Compound 16] ) reads < 0.1 µM

Field Ki (entry COc1ccc2c(c1C(=O)O)OB(O)[C@@H]1C[C@H]21 [Compound 3] ) reads < 0.1 µM

Field Ki (entry O=C(O)c1c(F)ccc2c1OB(O)[C@@H]1C[C@H]21 [Compound 13] ) reads < 0.1 µM

Field Ki (entry COc1ccc2c(c1C(=O)O)OB(O)C=C2 [Compound 9] ) reads > 1 µM

Field Ki (entry O=C(O)c1cccc2c1OB(O)[C@H]1C[C@@H]21 [Compound 18] ) reads 0.1 to 1 µM

Field Ki (entry O=C(O)c1c(F)ccc2c1OB(O)CC21CC1 [Compound 15] ) reads > 1 µM
